- test.target: Urokinase plasminogen activator (Homo sapiens (Human), UniProt P00749)
- experimental.protocol: inhibition of UK (35 nM) activity on S-2288; Ki as slope of [I]o/(1-a) vs. 1/a
quantity.name: Ki (nM)
# value in nM; strip the unit string

A selection of reference data follows.
> print(dat)
                                     binder  reported.value
1  The PAI-1 derived mutant, 89 (designed binder) VDCSEYPKPACARMAAPLCGSDNKTYGNKCNFCNAVVESNGTLTLSHFGKC            0.31
2  The Nexin-1 derived mutant, 91 (designed binder) VDCSEYPKPACARSSAPLCGSDNKTYGNKCNFCNAVVESNGTLTLSHFGKC             120
3  The PAI-2 derived mutant, 88 (designed binder) VDCSEYPKPACGRTGHPLCGSDNKTYGNKCNFCNAVVESNGTLTLSHFGKC              40

Now look at this entry.
Lookup: Give a short answer stating reported Ki for The Plasminogen derived mutant, 90 (designed binder) VDCSEYPKPACGRVVGPLCGSDNKTYGNKCNFCNAVVESNGTLTLSHFGKC .
Found: 106
